molecular target: GABAB receptor (GABABR1a/GABABR2 heterodimer) (Homo sapiens, UniProt O75899+Q9UBS5); assay: [35S]-GTPγS binding assay, potency of PAM (GABA dose-response curves with and without test compound); conditions: potency of the positive allosteric modulator; GABA dose-response in presence of test compound
Sequence (Q9UBS5 15-961 limits assumed): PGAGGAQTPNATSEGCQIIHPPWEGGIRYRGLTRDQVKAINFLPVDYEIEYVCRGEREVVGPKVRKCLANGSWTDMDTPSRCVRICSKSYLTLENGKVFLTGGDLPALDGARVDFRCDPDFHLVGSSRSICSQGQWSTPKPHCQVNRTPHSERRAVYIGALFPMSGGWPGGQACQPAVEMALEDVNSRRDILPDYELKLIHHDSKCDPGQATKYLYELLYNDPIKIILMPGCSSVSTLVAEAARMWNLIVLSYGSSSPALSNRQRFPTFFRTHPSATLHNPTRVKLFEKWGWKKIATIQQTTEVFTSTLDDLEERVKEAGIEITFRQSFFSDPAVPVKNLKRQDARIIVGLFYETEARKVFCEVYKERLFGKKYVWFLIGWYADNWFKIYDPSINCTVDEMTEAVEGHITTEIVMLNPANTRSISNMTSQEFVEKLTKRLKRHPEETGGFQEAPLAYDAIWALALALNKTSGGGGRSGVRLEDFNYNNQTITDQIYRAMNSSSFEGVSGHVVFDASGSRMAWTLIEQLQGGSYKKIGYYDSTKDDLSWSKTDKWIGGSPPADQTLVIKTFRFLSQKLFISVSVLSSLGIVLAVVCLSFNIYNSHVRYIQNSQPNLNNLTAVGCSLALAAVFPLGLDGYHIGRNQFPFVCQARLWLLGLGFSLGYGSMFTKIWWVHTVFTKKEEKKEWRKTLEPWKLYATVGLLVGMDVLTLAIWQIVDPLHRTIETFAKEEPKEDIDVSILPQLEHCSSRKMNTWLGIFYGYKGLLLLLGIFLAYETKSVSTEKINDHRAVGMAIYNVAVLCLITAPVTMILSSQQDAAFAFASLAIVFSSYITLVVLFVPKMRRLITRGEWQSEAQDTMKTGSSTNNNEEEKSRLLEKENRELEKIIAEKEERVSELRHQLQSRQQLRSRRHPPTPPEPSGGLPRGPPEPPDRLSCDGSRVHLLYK
Sequence (O75899 42-941): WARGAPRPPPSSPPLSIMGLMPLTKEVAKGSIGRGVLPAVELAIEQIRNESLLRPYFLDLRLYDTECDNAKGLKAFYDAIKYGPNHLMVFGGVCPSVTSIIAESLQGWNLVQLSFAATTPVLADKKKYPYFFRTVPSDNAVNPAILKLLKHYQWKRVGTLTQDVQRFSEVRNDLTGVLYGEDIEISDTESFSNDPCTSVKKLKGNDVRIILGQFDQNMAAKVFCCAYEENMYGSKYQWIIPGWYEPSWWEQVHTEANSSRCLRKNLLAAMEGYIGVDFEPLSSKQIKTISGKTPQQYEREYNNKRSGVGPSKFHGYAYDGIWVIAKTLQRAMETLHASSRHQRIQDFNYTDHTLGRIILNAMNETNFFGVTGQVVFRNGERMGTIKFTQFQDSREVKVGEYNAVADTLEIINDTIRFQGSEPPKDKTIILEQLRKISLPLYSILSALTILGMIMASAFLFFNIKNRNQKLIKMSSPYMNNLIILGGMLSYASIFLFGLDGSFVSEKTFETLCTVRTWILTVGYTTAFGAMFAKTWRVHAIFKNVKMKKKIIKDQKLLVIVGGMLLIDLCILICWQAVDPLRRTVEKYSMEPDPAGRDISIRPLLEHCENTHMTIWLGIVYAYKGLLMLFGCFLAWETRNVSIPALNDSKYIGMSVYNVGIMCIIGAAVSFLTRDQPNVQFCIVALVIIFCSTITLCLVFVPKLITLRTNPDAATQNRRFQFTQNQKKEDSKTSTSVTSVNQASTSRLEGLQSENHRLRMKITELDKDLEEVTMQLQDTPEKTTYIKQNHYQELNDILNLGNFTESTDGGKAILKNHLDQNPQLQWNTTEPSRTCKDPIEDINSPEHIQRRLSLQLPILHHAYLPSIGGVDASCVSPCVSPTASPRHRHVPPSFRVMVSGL
measurement-kind: EC50 (µM)

// known answers, use as guide
compound: CCC(=O)Cn1c(=O)n(Cc2ccc(Cl)cc2)c(=O)c2c1nc(CC)n2C [Example 33]
tested-on: GABAB receptor (GABABR1a/GABABR2 heterodimer) (Homo sapiens, UniProt O75899+Q9UBS5)
measurement-kind: EC50
endpoint-value: 3.7
//
compound: CCc1nc2c(c(=O)n(Cc3ccc(Cl)cc3)c(=O)n2Cc2ccc(OC)cc2OC)n1C [Example 71]
tested-on: GABAB receptor (GABABR1a/GABABR2 heterodimer) (Homo sapiens, UniProt O75899+Q9UBS5)
measurement-kind: EC50
endpoint-value: 11.3

(I) CCc1nc2c(c(=O)n(Cc3ccc(Cl)cc3)c(=O)n2Cc2ccc(S(C)(=O)=O)cc2)n1C [Example 22]
(II) CCCn1c(=O)n(Cc2ccc(Cl)cc2)c(=O)c2c1nc(C(C)O)n2C (centres unmarked) [Example 96]
Q) Compare the recorded EC50 of I and II ; state which is larger. Choose, then provide that item's label.
A) II
(II: 12.2 µM, I: 2.5 µM)

* * *

target: GABAB receptor (GABABR1a/GABABR2 heterodimer) (Homo sapiens, UniProt O75899+Q9UBS5); assay: [35S]-GTPγS binding assay, potency of PAM (GABA dose-response curves with and without test compound); conditions: potency of the positive allosteric modulator; GABA dose-response in presence of test compound
measurement-kind: EC50 (µM)

molecule: CCCn1c(=O)n(Cc2nc3cc(C(F)(F)F)ccc3s2)c(=O)c2c1nc(CC)n2C [Example 66]
tested-on: GABAB receptor (GABABR1a/GABABR2 heterodimer) (Homo sapiens, UniProt O75899+Q9UBS5)
measurement-kind: EC50
units-label: µM
endpoint-value: 17.3

(a) CCc1nc2c(c(=O)n(Cc3ccc(Cl)cc3)c(=O)n2Cc2cccnc2)n1C [Example 18]
(b) CCc1nc2c(c(=O)n(Cc3ccc(Cl)cc3)c(=O)n2CC(=O)OC)n1C [Example 11]
(c) CCCn1c(=O)n(Cc2ccc(OC)cc2)c(=O)c2c1nc(CC)n2C [Example 69]
Q) Could you please sort these 3 entries by EC50 from high to low? List each label, following the requested order.
A) c, b, a
(c: 19.7 µM, b: 8.5 µM, a: 3.3 µM)
